// data source = patent US20250032458A1

Assay Procedure: Exposure in mice bearing SNU-16 xenografts
Assay Setup: mouse, in vivo, PO QD 2-15 mg/kg, 24-hour period following the last dose
Measured Endpoint: AUC(0-t)

Which AUC(0-t) reading was recorded for the molecule C=CC(=O)N1C[C@@H](n2nc(C#Cc3c(F)cc4c(ncn4C4CC4)c3F)c(C(N)=O)c2NC)C[C@@H]1COC [Compound 1] ?
1090 to 9760 ng·h/mL
